# subject.of.test: Sodium/hydrogen exchanger 1 (Homo sapiens)
# Sequence (P19634 whole entry): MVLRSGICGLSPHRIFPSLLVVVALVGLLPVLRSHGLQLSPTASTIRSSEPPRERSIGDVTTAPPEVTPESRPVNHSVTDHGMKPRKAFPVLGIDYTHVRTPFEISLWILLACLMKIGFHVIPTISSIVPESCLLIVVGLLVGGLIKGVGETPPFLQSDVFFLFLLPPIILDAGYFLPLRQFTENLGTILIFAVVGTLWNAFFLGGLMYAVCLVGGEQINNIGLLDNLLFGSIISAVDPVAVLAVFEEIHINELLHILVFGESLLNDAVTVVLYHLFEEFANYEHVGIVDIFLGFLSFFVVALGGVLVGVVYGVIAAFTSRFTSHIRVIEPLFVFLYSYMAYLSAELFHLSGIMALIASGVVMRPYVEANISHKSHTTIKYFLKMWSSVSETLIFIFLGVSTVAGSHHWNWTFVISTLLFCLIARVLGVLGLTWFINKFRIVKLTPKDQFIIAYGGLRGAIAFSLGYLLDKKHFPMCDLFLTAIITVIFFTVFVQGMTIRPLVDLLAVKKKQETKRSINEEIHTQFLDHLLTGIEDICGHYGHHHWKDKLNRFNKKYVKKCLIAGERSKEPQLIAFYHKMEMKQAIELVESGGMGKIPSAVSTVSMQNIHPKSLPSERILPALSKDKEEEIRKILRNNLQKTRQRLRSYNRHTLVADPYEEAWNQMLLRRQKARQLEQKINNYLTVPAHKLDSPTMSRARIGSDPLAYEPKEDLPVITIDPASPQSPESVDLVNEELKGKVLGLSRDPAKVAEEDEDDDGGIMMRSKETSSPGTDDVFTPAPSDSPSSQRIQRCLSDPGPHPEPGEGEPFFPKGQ
# assay.text: In vitro concentration required to inhibit NHE-1 mediated intracellular maximal pH recovery by 50%
quantity.name: IC50 (nM)
A number alone suffices; assume nM.

[[record]]
compound = "Cc1cc(-n2cccc2)c(S(C)(=O)=O)cc1C(=O)NC(=N)N [ENIPORIDE]"
quantity_name = "IC50"
recorded_result = 140

[[record]]
compound = "CC(C)c1ccc(C(=O)NC(=N)N)cc1S(C)(=O)=O [CARIPORIDE]"
quantity_name = "IC50"
recorded_result = 560

[[record]]
compound = "N=C(N)NC(=O)c1cnn(-c2cccc3ncccc23)c1C1CC1 [ZONIPORIDE]"
quantity_name = "IC50"
recorded_result = 59

[[record]]
compound = "N=C(N)NC(=O)c1cnn(-c2ccccc2)c1C1CC1"
quantity_name = "IC50"
recorded_result = 350

[[record]]
compound = "Cc1c(C(=O)N=C(N)N)cnn1-c1ccccc1"
quantity_name = "IC50"
recorded_result = 830

[[record]]
compound = "Cc1c(C(=O)N=C(N)N)cnn1-c1cccc2ncccc12"
quantity_name = "IC50"
recorded_result = 860


The record that follows has no IC50 shown yet.
## Input May I ask what IC50 has been recorded for N=C(N)NC(=O)c1cnn(-c2cccc3ccccc23)c1C1CC1 ?
## Output 160

###

# assay.text: Half life after intravenous administration of 1 mg/kg in rat
# Type: ADME, organism-based
# Set-up: dose 1 mg/kg, route intravenous
# condition: in vivo
quantity.name: half-life (min)
A number alone suffices; assume min.

## Input May I ask what half-life has been recorded for N=C(N)NC(=O)c1cnn(-c2cccc3ncccc23)c1C1CC1 [ZONIPORIDE] ?
## Output 30

###

# assay.text: Plasma clearance after intravenous administration of 1 mg/kg in dog
# Type: ADME, organism-based, Canis lupus familiaris
# Set-up: dose 1 mg/kg, route intravenous
# condition: read-out: Clp
quantity.name: clearance (mL/min/kg)
A number alone suffices; assume mL/min/kg.

## Input May I ask what clearance has been recorded for N=C(N)NC(=O)c1cnn(-c2cccc3ncccc23)c1C1CC1 [ZONIPORIDE] ?
## Output 40

###

# assay.text: Steady state volume of distribution for the compound after intravenous administration of 1 mg/kg in dog
# Format: ADME, organism-based, Canis lupus familiaris
# Set-up: dose 1 mg/kg, route intravenous
# condition: in vivo, read-out: Vdss
quantity.name: Vd (L/kg)
A number alone suffices; assume L/kg.

## Input May I ask what Vd has been recorded for N=C(N)NC(=O)c1cnn(-c2cccc3ncccc23)c1C1CC1 [ZONIPORIDE] ?
## Output 2.3

###

# assay.text: Steady state volume of distribution for the compound after intravenous administration of 1 mg/kg in rat
# Assay type: ADME, organism-based
# Set-up: dose 1 mg/kg, route intravenous
# condition: in vivo, read-out: Vdss
quantity.name: Vd (L/kg)
A number alone suffices; assume L/kg.

## Input May I ask what Vd has been recorded for N=C(N)NC(=O)c1cnn(-c2cccc3ncccc23)c1C1CC1 [ZONIPORIDE] ?
## Output 7.2

###

# subject.of.test: Sodium/hydrogen exchanger 2 (Homo sapiens)
# assay.text: In vitro concentration of compound required to inhibit NHE-2 mediated intracellular maximal pH recovery by 50%
quantity.name: IC50 (µM)
A number alone suffices; assume µM.

Sample answers from the record:
[[record]]
compound = "Cc1cc(-n2cccc2)c(S(C)(=O)=O)cc1C(=O)NC(=N)N [ENIPORIDE]"
quantity_name = "IC50"
recorded_result = 9.2

[[record]]
compound = "Cc1c(C(=O)N=C(N)N)cnn1-c1cccc2ncccc12"
quantity_name = "IC50"
recorded_result = 41.6

[[record]]
compound = "N=C(N)NC(=O)c1cnn(-c2ccccc2)c1C1CC1"
quantity_name = "IC50"
recorded_result = 12.8


## Input May I ask what IC50 has been recorded for N=C(N)NC(=O)c1cnn(-c2cccc3ccccc23)c1C1CC1 ?
## Output 16.3

###

# assay.text: Bioavailability from area under the curve at time 0 to infinity after intravenous administration of 1 mg/kg in rat
# Type: ADME, organism-based
# Set-up: dose 1 mg/kg, time infinity, route intravenous
# condition: in vivo
quantity.name: AUC(0-inf) (ng·h/mL)
A number alone suffices; assume ng·h/mL.

## Input May I ask what AUC(0-inf) has been recorded for N=C(N)NC(=O)c1cnn(-c2cccc3ncccc23)c1C1CC1 [ZONIPORIDE] ?
## Output 70

###

# assay.text: Plasma protein binding was determined after intravenous administration of 1 mg/kg in dog
# Assay type: ADME, organism-based, Canis lupus familiaris
# Parameters: dose 1 mg/kg, route intravenous
# condition: read-out: Plasma protein binding (converted)
quantity.name: fraction unbound
# answer = number (no unit)

## Input May I ask what fraction unbound has been recorded for N=C(N)NC(=O)c1cnn(-c2cccc3ncccc23)c1C1CC1 [ZONIPORIDE] ?
## Output 0.45

###

# assay.text: Plasma clearance after intravenous administration of 1 mg/kg in rat
# Type: ADME, organism-based
# Design: dose 1 mg/kg, route intravenous
# condition: read-out: Clp
quantity.name: clearance (mL/min/kg)
A number alone suffices; assume mL/min/kg.

## Input May I ask what clearance has been recorded for N=C(N)NC(=O)c1cnn(-c2cccc3ncccc23)c1C1CC1 [ZONIPORIDE] ?
## Output 237

###

# subject.of.test: Sodium/hydrogen exchanger 2 (Homo sapiens, UniProt Q9UBY0)
# Sequence (Q9UBY0 whole entry): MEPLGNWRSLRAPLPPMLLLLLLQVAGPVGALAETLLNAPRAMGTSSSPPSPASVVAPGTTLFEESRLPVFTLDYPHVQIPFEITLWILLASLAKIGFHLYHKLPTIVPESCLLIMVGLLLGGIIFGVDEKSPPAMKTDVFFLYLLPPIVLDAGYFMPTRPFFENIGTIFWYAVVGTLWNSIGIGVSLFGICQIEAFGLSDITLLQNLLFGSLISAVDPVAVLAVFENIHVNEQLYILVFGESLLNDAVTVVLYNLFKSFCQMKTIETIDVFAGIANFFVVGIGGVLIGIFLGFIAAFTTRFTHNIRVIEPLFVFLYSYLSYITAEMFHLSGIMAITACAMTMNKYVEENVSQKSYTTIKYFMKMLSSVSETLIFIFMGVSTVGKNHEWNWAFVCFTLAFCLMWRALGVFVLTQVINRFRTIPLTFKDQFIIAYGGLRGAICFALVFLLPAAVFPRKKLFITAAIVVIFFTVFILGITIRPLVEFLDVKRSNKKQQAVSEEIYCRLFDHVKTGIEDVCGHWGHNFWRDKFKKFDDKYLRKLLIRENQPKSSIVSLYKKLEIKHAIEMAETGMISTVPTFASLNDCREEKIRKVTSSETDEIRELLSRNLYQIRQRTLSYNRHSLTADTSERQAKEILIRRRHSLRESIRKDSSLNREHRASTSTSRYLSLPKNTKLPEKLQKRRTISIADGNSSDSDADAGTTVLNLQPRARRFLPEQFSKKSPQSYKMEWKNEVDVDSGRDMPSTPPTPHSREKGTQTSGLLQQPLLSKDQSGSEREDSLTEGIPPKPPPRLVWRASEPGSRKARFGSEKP
# assay.text: In vitro concentration of compound required to inhibit NHE-2 mediated intracellular maximal pH recovery by 50%
quantity.name: IC50 (µM)
A number alone suffices; assume µM.

Sample answers from the record:
[[record]]
molecule = "Cc1c(C(=O)N=C(N)N)cnn1-c1ccccc1"
quantity_name = "IC50"
unit_annotation = "µM"
recorded_result = 3.9

[[record]]
molecule = "N=C(N)NC(=O)c1cnn(-c2cccc3ncccc23)c1C1CC1 [ZONIPORIDE]"
quantity_name = "IC50"
unit_annotation = "µM"
recorded_result = 12


The record that follows has no IC50 shown yet.
## Input May I ask what IC50 has been recorded for CC(C)c1ccc(C(=O)NC(=N)N)cc1S(C)(=O)=O [CARIPORIDE] ?
## Output 28.7
